# System: HCT-116 cells
# assay.remarks: MTT cytotoxicity assay, HCT-116
# Type: cell-based
# assay.context: Homo sapiens, incubation time 24 h, mean ± SD (n = 3)
attribute.measured: pIC50
# reply with the number alone; pIC50 is -log10 of concentration in mol/L

In [3]: df
Out[3]:
                         compound_structure  quantitative_readout
0  CC(=O)OC[C@H]1O[C@@H](Sc2ccc(NC(=O)OCc3cn(CCCOc4cccc5cccnc45)nn3)cn2)[C@H](OC(C)=O)[C@@H](OC(C)=O)[C@@H]1OC(C)=O                  4.20
1  CC(=O)OC[C@H]1O[C@@H](Sc2ccc(NC(=O)CN=[N+]=[N-])cn2)[C@H](OC(C)=O)[C@@H](OC(C)=O)[C@@H]1OC(C)=O                  4.87
2  CC(=O)OC[C@H]1O[C@@H](SCc2cn(CCCOc3cccc4ccc(C)nc34)nn2)[C@H](OC(C)=O)[C@@H](OC(C)=O)[C@@H]1OC(C)=O                  3.97

Continue with the compound presented below.
q: GET /values?readout=pIC50&item= `CC(=O)OC[C@H]1O[C@@H](Sc2ccc(NC(=O)CN=[N+]=[N-])cn2)[C@H](OC(C)=O)[C@@H](OC(C)=O)[C@H]1OC(C)=O`
a: 3.27

* * *

# Test system: HCT-116 cells
# assay.remarks: MTT cytotoxicity assay, HCT-116
# Assay type: cell-based
# assay.context: Homo sapiens, incubation time 24 h, mean ± SD (n = 3)
attribute.measured: IC50 (µM)
Write down the numeric answer in µM and omit the unit.

Completed entries (count: 2):
molecule	assay.system	quantitative.readout
COc1cccc2c1C(=O)c1c(O)c3c(c(O)c1C2=O)C[C@@](O)(C(=O)CO)C[C@@H]3O[C@H]1C[C@H](N)[C@H](O)[C@H](C)O1 [Doxorubicin, reference compound]	HCT-116 cells	5.59
CC(=O)OC[C@H]1O[C@@H](Sc2ccc(NC(=O)Cn3cc(COc4cccc5cccnc45)nn3)cn2)[C@H](OC(C)=O)[C@@H](OC(C)=O)[C@H]1OC(C)=O	HCT-116 cells	130

In the following, a different molecule is considered.
q: Any idea what its IC50 is? The molecule is `CC(=O)OC[C@H]1O[C@@H](SCc2cn(CCCOc3cccc4ccc(C)nc34)nn2)[C@H](OC(C)=O)[C@@H](OC(C)=O)[C@H]1OC(C)=O`
a: 324

* * *

Each record here notes measured IC50.
# Tested on: HCT-116 cells
# assay.remarks: Influence of metal ions on cellular proliferation (MTT with Cu2+), HCT-116
# Format: cell-based
# assay.context: Homo sapiens, MTT assay, 24 h, addition of copper acetate at 100 µM
Express your answer in µM, writing the number without its unit.

>>> print(df.to_string())
                         compound_structure  attribute_measured  value_units  quantitative_readout
0  CC(=O)OC[C@H]1O[C@@H](Sc2ccc(NC(=O)OCc3cn(CCCOc4cccc5cccnc45)nn3)cn2)[C@H](OC(C)=O)[C@@H](OC(C)=O)[C@H]1OC(C)=O                IC50           µM                    83
1  CC(=O)OC[C@H]1O[C@@H](Sc2ccc(NC(=O)Cn3cc(COc4cccc5cccnc45)nn3)cn2)[C@H](OC(C)=O)[C@@H](OC(C)=O)[C@@H]1OC(C)=O                IC50           µM                  74.5
2  CC(=O)OC[C@H]1O[C@@H](Sc2ccc(NC(=O)Cn3cc(COc4cccc5cccnc45)nn3)cn2)[C@H](OC(C)=O)[C@@H](OC(C)=O)[C@H]1OC(C)=O                IC50           µM                    96

Next, consider the following compound.
q: Could you share what IC50 was measured for `CC(=O)OC[C@H]1O[C@@H](Sc2ccc(NC(=O)OCc3cn(CCCOc4cccc5cccnc45)nn3)cn2)[C@H](OC(C)=O)[C@@H](OC(C)=O)[C@@H]1OC(C)=O` , tested on HCT-116 cells?
a: 73.9

Data origin, for the record: paper PMC7570910
